Target: human MC1 receptor (Homo sapiens)
Construct: endogenous in cells; host or cells: M4Be human melanoma (melanocyte) cell line
Assay: Inhibition of AMPc production induced by α-MSH on M4Be cells
Assay type: cell-based
Settings: M4Be human cell line, 5×10^−8 M α-MSH, average of the experiments; read-out: CI50 (μM) aver.
Residues, ends and D or L forms follow the SMILES beside them. *: point of attachment. Palmitoyl = CCCCCCCCCCCCCCCC(=O)*
READOUT_TYPE: IC50 (µM)

Worked examples follow.
compound="CCCCCCCCCCCCCCCC(=O)N[C@@H](CO)C(=O)N1CCC[C@H]1C(N)=O [Compound 125, Palm-Ser-Pro-NH2] (Palmitoyl-Ser-Pro-NH2)" quantitative_readout=17
compound="CCCCCCCCCCCCCCCC(=O)N[C@@H](CCCNC(=N)N)C(=O)N1CCC[C@H]1C(N)=O [Compound 49, Palm-Arg-Pro-NH2] (Palmitoyl-Arg-Pro-NH2)" quantitative_readout=23
compound="CCCCCCCCCCCCCCCC(=O)N[C@@H](CCCNC(=N)N)C(=O)N[C@@H](CCCNC(=N)N)C(N)=O [Compound 41, Palm-Arg-Arg-NH2] (Palmitoyl-Arg-Arg-NH2)" quantitative_readout=26

1. CCCCCCCCCCCCCCCC(=O)N[C@@H](CCCNC(=N)N)C(=O)N[C@@H](CCCCN)C(N)=O [Compound 50, Palm-Arg-Lys-NH2] (Palmitoyl-Arg-Lys-NH2)
2. CCCCCCCCCCCCCCCC(=O)N[C@@H](CCCNC(=N)N)C(=O)N[C@@H](Cc1c[nH]cn1)C(N)=O [Compound 39, Palm-Arg-His-NH2] (Palmitoyl-Arg-His-NH2)
Q. Of 1 and 2 , whose reported IC50 is the larger number? Answer with the label corresponding to your selection.
A. 1

###

Target: human MC1 receptor (Homo sapiens, UniProt Q01726)
Construct: endogenous in cells; host or cells: M4Be human melanoma (melanocyte) cell line
Sequence (Q01726 whole entry): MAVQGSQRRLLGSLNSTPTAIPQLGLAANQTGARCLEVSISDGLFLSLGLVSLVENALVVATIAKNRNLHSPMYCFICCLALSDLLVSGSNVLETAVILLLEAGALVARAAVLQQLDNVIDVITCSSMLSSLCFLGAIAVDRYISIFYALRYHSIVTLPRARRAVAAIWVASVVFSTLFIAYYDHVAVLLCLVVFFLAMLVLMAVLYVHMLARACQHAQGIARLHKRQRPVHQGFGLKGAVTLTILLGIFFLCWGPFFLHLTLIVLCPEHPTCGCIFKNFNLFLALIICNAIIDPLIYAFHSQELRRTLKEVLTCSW
Assay: Inhibition of AMPc production induced by α-MSH on M4Be cells
Type: cell-based
Settings: M4Be human cell line, 5×10^−8 M α-MSH, 10 minutes at 37° C., experiment 2; read-out: CI50 (μM) exp2
Residues, ends and D or L forms follow the SMILES beside them. *: point of attachment. Palmitoyl = CCCCCCCCCCCCCCCC(=O)*
READOUT_TYPE: IC50 (µM)

Answered cases to consult:
compound="CCCCCCCCCCCCCCCC(=O)N[C@@H](CCCNC(=N)N)C(=O)N[C@@H](CCCNC(=N)N)C(N)=O [Compound 41, Palm-Arg-Arg-NH2] (Palmitoyl-Arg-Arg-NH2)" quantitative_readout=17
compound="CCCCCCCCCCCCCCCC(=O)N[C@@H](CO)C(=O)N1CCC[C@H]1C(N)=O [Compound 125, Palm-Ser-Pro-NH2] (Palmitoyl-Ser-Pro-NH2)" quantitative_readout=5.5

I. CCCCCCCCCCCCCCCC(=O)N[C@@H](CCCNC(=N)N)C(=O)N1CCC[C@H]1C(N)=O [Compound 49, Palm-Arg-Pro-NH2] (Palmitoyl-Arg-Pro-NH2)
II. CCCCCCCCCCCCCCCC(=O)N[C@@H](CCCNC(=N)N)C(=O)N[C@@H](Cc1c[nH]cn1)C(N)=O [Compound 39, Palm-Arg-His-NH2] (Palmitoyl-Arg-His-NH2)
III. CCCCCCCCCCCCCCCC(=O)N[C@@H](CCCNC(=N)N)C(=O)N[C@@H](CCCCN)C(N)=O [Compound 50, Palm-Arg-Lys-NH2] (Palmitoyl-Arg-Lys-NH2)
Q. // ascending sort on recorded IC50 Write the labels in rank order as requested.
A. II, III, I
(II: 4.6 µM, III: 9.6 µM, I: 26 µM)

###

Biological target: human MC1 receptor (Homo sapiens, UniProt Q01726)
Construct: endogenous in cells; host or cells: M4Be human melanoma (melanocyte) cell line
Assay: Inhibition of AMPc production induced by α-MSH on M4Be cells
Type: cell-based
Conditions: M4Be human cell line, 5×10^−8 M α-MSH, 10 minutes at 37° C., experiment 3; read-out: CI50 (μM) exp3
Experimental: Five Palm-dipeptides according to this invention were introduced at different concentrations and each measurement was made in triplicate. Two or three series of experiments were made. […] The peptidic activity was determined with reference to the AMPc content synthesized by untreated cells and the production of AMPc induced by α-MSH alone. […]
Residues, ends and D or L forms follow the SMILES beside them. *: point of attachment. Palmitoyl = CCCCCCCCCCCCCCCC(=O)*
READOUT_TYPE: IC50 (µM)

A. CCCCCCCCCCCCCCCC(=O)N[C@@H](CCCNC(=N)N)C(=O)N[C@@H](Cc1c[nH]cn1)C(N)=O [Compound 39, Palm-Arg-His-NH2] (Palmitoyl-Arg-His-NH2)
B. CCCCCCCCCCCCCCCC(=O)N[C@@H](CO)C(=O)N1CCC[C@H]1C(N)=O [Compound 125, Palm-Ser-Pro-NH2] (Palmitoyl-Ser-Pro-NH2)
Q. Response body: label of entry with the larger IC50; valid values A , B . The response must carry the label of the picked entry.
A. A
